These data points were gathered from patent US11667602B2.

# procedure_details: Human Hepatocyte Stability (Test D)
# Type: in vitro ADME
# recorded_conditions: human, cryopreserved pooled human hepatocytes (LiverPool 10-Donor), geometric mean if run multiple times
Entries and their measured hepatocyte CLint at 1 µM follow.
Please reply with the bare figure in µL/min/1e6 cells and do not write the unit itself.

[[record]]
compound = "COc1cc(F)c(-c2cccc(C(=O)O)c2)cc1C(=O)N[C@H]1[C@@H](C(=O)Nc2cccc(S(=O)(=O)C(F)(F)F)c2)[C@@H]2C=C[C@H]1C2 (single isomer, unassigned)"
scale_unit = "µL/min/1e6 cells"
recorded_measurement = 5.4

[[record]]
compound = "COc1cc(F)c(OCCCCCC(=O)O)cc1C(=O)N[C@@H]1[C@H]2CC[C@H](C2)[C@@H]1C(=O)Nc1cccc(S(=O)(=O)C(F)(F)F)c1"
scale_unit = "µL/min/1e6 cells"
recorded_measurement = 150


Please give the measured hepatocyte CLint at 1 µM for this compound: COc1cc(F)c(-c2ccc(S(N)(=O)=O)cc2)cc1C(=O)N[C@@H]1[C@H]2CC[C@H](C2)[C@@H]1C(=O)Nc1cccc(S(=O)(=O)C(F)(F)F)c1
18

----------
# target_desc: human RXFP1 (Homo sapiens)
# Sequence (Q9HBX9 whole entry): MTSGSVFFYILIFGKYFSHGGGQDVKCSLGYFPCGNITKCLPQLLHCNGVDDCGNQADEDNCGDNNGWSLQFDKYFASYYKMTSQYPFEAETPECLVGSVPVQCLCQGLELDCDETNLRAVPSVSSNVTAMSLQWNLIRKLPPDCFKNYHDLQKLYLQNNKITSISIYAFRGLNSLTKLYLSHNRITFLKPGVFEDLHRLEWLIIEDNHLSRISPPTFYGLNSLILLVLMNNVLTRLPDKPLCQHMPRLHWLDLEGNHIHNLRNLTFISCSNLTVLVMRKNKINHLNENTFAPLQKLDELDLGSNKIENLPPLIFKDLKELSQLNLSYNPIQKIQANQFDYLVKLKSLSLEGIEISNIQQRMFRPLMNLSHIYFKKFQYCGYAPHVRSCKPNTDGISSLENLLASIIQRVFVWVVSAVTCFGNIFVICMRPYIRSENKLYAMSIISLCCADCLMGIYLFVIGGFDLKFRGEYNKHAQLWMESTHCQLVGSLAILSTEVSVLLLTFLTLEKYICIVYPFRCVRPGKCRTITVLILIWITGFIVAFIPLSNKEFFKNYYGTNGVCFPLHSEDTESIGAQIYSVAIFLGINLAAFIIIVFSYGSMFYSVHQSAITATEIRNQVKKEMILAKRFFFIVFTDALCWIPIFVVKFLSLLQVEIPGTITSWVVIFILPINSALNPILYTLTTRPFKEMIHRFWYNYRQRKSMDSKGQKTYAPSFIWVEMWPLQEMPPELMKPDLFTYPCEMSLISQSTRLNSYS
# procedure_details: RXFP1 Hu cAMP (Test A)
# Format: cell-based
# Design: expressed in transfected cells; host or cells: Jump-In T-REx CHO-K1 cells (ThermoFisher), induced with 10 ng/ml doxycycline for 24 h
# recorded_conditions: RXFP1 Hu cAMP
metric: Test A Sinf (%)
Please reply with the bare figure in % and do not write the unit itself.

Solved entries:
[[record]]
compound = "COc1cc(F)c(O[C@H]2CC[C@@H](C(=O)O)CC2)cc1C(=O)N[C@@H]1[C@H]2CC[C@H](C2)[C@@H]1C(=O)NCC(C)(C)C"
target_desc = "human RXFP1 (Homo sapiens)"
metric = "Test A Sinf"
recorded_measurement = 100

[[record]]
compound = "CC[C@]1(C(=O)O)CC[C@@H](Oc2cc(C(=O)N[C@@H]3[C@H]4CC[C@H](C4)[C@@H]3C(=O)NCC(C)(C)C)c(OC)cc2F)CC1"
target_desc = "human RXFP1 (Homo sapiens)"
metric = "Test A Sinf"
recorded_measurement = 114

[[record]]
compound = "COc1cc(F)c(O[C@H]2CC[C@@](C)(C(=O)O)CC2)cc1C(=O)Nc1cc(Cl)ccc1C(=O)NCC1(C)CCC1"
target_desc = "human RXFP1 (Homo sapiens)"
metric = "Test A Sinf"
recorded_measurement = 126

[[record]]
compound = "COc1cc(F)c(OCCCCCC(=O)O)cc1C(=O)N[C@H]1[C@@H](C(=O)Nc2cccc(S(=O)(=O)C(F)(F)F)c2)[C@@H]2C=C[C@H]1C2 (racemic)"
target_desc = "human RXFP1 (Homo sapiens)"
metric = "Test A Sinf"
recorded_measurement = 91

[[record]]
compound = "COc1cc(F)c(-c2cccc(C(=O)O)c2)cc1C(=O)N[C@@H]1CCC[C@@H]1C(=O)Nc1cccc(S(=O)(=O)C(F)(F)F)c1 (racemic) [Example 300]"
target_desc = "human RXFP1 (Homo sapiens)"
metric = "Test A Sinf"
recorded_measurement = 78

[[record]]
compound = "COc1cc(F)c(-c2cccc(C(=O)O)c2)cc1C(=O)N[C@H]1[C@@H](C(=O)Nc2cccc(S(=O)(=O)C(F)(F)F)c2)[C@@H]2C=C[C@H]1C2 (racemic) [Example 225]"
target_desc = "human RXFP1 (Homo sapiens)"
metric = "Test A Sinf"
recorded_measurement = 98


What does the record list as Test A Sinf for COc1cc(F)c(O[C@H]2CC[C@@H](C(=O)O)CC2)cc1C(=O)N[C@H]1[C@@H](C(=O)Nc2ccc(F)c(C(F)(F)F)c2)[C@@H]2C=C[C@H]1C2 (single isomer, unassigned) ?
113

Bench note: what Test A Sinf did COc1cc(F)c(OCc2ccc(C(=O)O)cc2)cc1C(=O)N[C@H]1[C@@H](C(=O)Nc2cccc(S(=O)(=O)C(F)(F)F)c2)[C@@H]2C=C[C@H]1C2 (racemic) show?
107

What value of Test A Sinf has been recorded for this entry: COc1cc(F)c(-c2ccc(C(=O)O)c(N(C)C)c2)cc1C(=O)N[C@@H]1[C@H]2CC[C@H](C2)[C@@H]1C(=O)Nc1cccc(S(=O)(=O)C(F)(F)F)c1
100
